Data credit: patent US20170066831A1

Biological target: T1, human ST2L extracellular domain with C-terminal His6 tag (human, UniProt Q01638 19-328)
T1 construct: also called huST2L-ECD; ST2L-ECD
T1 sequence: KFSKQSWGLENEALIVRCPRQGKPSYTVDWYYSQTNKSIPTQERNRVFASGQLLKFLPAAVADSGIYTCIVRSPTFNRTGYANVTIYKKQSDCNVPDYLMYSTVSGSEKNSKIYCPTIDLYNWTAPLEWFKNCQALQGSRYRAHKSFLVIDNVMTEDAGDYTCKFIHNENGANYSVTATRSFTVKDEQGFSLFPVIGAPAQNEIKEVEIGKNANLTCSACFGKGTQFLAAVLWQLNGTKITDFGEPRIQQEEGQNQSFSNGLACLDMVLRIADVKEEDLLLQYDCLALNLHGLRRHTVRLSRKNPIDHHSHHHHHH
Assay: RLB ELISA: biotinylated IL-33 on coated huST2L-ECD, antibody titrated
This listing pairs binders with measured IC50.
property.name: IC50 (µg/mL)

binder: STLM103 (antibody, V domains shown, frameworks VH3-23 / Vk-L6) VH: EVQLLESGGGLVQPGGSLRLSCAASGFTFSFYDMFWVRQAPGKGLEWVSSIRGEGGRTDYADSVKGRFTISRDNSKNTLYLQMNSLRAEDTAVYYCARDPWSTEGSFFVLDYWGQGTLVTVSS VL: EIVLTQSPATLSLSPGERATLSCRASQSVDDDLAWYQQKPGQAPRLLIYDASNRATGIPARFSGSGSGTDFTLTISSLEPEDFAVYYCQQYIGAPITFGQGTKVEIK
result.units: µg/mL
value: 0.47
--
binder: STLM213 (antibody, V domains shown, frameworks VH3-23 / Vk-L6) VH: EVQLLESGGGLVQPGGSLRLSCAASGFTFSFYDMIWVRQAPGKGLEWVSTIRGEGGDTNYADSVKGRFTISRDNSKNTLYLQMNSLRAEDTAVYYCARDPWSTEGSFFVLDYWGQGTLVTVSS VL: EIVLTQSPATLSLSPGERATLSCRASQSVDDDLAWYQQKPGQAPRLLIYDASNRATGIPARFSGSGSGTDFTLTISSLEPEDFAVYYCQQYIDAPLTFGQGTKVEIK
result.units: µg/mL
value: 0.34
--
binder: STLM230 (antibody, V domains shown, VH STLH201 + VL STLL274) VH: EVQLVQSGAEVKKPGATVKISCKVSAFNIKDDYMHWVQQAPGKGLEWMGRIDPAIGNTEYAEKFQGRVTITADTSTDTAYMELSSLRSEDTAVYYCATGDFYAMAYWGQGTLVTVSS VL: DIQMTQSPSSLSASVGDRVTITCITNTDIDDVIHWYQQKPGKAPKLLIYEGNTLRPGVPSRFSGSGSGTDFTLTISSLQPEDFATYYCLQSDNMLTFGQGTKLEIK
result.units: µg/mL
value: 0.28
--
binder: STLM211 (antibody, V domains shown, frameworks VH3-23 / Vk-L6) VH: EVQLLESGGGLVQPGGSLRLSCAASGFTFSGYAMIWVRQAPGKGLEWVSYIEGEGGETYYADSVKGRFTISRDNSKNTLYLQMNSLRAEDTAVYYCARDPWSTEGSFFVLDYWGQGTLVTVSS VL: EIVLTQSPATLSLSPGERATLSCRASQSVDDDLAWYQQKPGQAPRLLIYDASNRATGIPARFSGSGSGTDFTLTISSLEPEDFAVYYCQQYNDAITFGQGTKVEIK
result.units: µg/mL
value: 0.28
--
binder: STLM209 (antibody, V domains shown, frameworks VH3-23 / Vk-L6) VH: EVQLLESGGGLVQPGGSLRLSCAASGFTFSIYDMIWVRQAPGKGLEWVSTIRGEGGGTSYADSVKGRFTISRDNSKNTLYLQMNSLRAEDTAVYYCARDPWSTEGSFFVLDYWGQGTLVTVSS VL: EIVLTQSPATLSLSPGERATLSCRASQSVDDDLAWYQQKPGQAPRLLIYDASNRATGIPARFSGSGSGTDFTLTISSLEPEDFAVYYCQQYITAPLTFGQGTKVEIK
result.units: µg/mL
value: 0.32
